System: wheat germ agglutinin (Triticum aestivum), Alexa647-labelled
Test description: wheat germ agglutinin binders on compound microarrays, profiling panel, artefact control for SMM control-protein annotation, biochemical, small-molecule microarray, 635/667 nm fluorescence (AID 1140);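 note: score merges 667 nm feature emission with signal to noise over triplicate slides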
Cond: WGA-A647 binding, 635 nm fluorescence, higher = more signal
Measurement label: composite z-score
Reply briefly: the number, and no unit.

Please look up its composite z-score: CCOC(=O)C1=CC[C@@H](c2ccccc2)N(S(=O)(=O)c2ccc(C)cc2)[C@H]1c1ccccc1C
0.406

Please look up its composite z-score: [N-]=[N+]=NCc1ccccc1C[C@]1(C(=O)N2CCCCC2)N=C(c2ccc(OCCCO)cc2)O[C@H]1c1ccccc1N=[N+]=[N-]
1

Please look up its composite z-score: CCC[C@@H]1C[C@@]1(CCC)[C@@H](NS(=O)(=O)c1cccc2cccnc12)c1ccc(Cl)cc1
0.701

Please look up its composite z-score: COC(=O)C(CC#Cc1ccc2c(c1)[C@]1(C(=O)N2)[C@H](c2ccc(OCCO)cc2)N2[C@H](c3ccccc3)[C@H](c3ccccc3)OC(=O)[C@H]2[C@@H]1C(=O)N1CCc2cc(OC)c(OC)cc2C1)C(=O)OC
0.423

* * *

Test description: E. coli DRC41 culture turbidity changes, primary screen, E. coli filamentation inducer project, strain DRC41, OD650, 48 h (AID 1152);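 note: E. coli MC1000 strain DRC41 lacking acrAB efflux pump and sulA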
Cond: E. coli DRC41 (acrAB sulA), higher = more signal, called active from +8 up or from −8 down
Active and inactive are the calls of the source.
Measurement label: z-score

Please look up its z-score: C=CCN1C(=O)[C@@]2(Cc3ccccc31)N=C(c1ccc(OCCCO)cc1)O[C@H]2c1ccccc1
0.613 (inactive)

Please look up its z-score: COCCOC(=O)N1C(=O)[C@@]2(c3cc(C#Cc4ccc(OC)cc4)ccc31)[C@H](c1ccccc1OCCO)N1[C@H](c3ccccc3)[C@H](c3ccccc3)OC(=O)[C@H]1[C@@H]2C(=O)NC[C@H](O)c1ccccc1
0.216 (inactive)

Please look up its z-score: Cc1ccc(S[C@]2(C(=O)NC3CC3)CC(=O)N(Cc3ccccc3)[C@@H]2c2ccc(CO)cc2I)cc1
1.24 (inactive)

Please look up its z-score: COC(=O)[C@@]1(Cc2ccc(F)cc2)[C@H]2c3cc(C(=O)N(C)C)n(Cc4cc(F)c(F)c(F)c4)c3C[C@H]2CN1C(=O)c1ccccc1
-1.42 (inactive)

Please look up its z-score: C[N+](C)(C)CCCCNC(=O)[C@@H]1C[C@@H]2C(=O)N[C@@H](Cc3ccccc3)C(=O)N2[C@@H]1c1cccc(OCCO)c1
1.04 (inactive)

Please look up its z-score: Cc1ccc(S[C@]2(C(=O)NCCCN(C)C)CC(=O)N(Cc3cc(C(F)(F)F)cc(C(F)(F)F)c3)[C@@H]2c2ccc(CO)cc2)cc1
-0.48 (inactive)

Please look up its z-score: C=CCOC(=O)[C@H]1[C@@H]2C(=O)O[C@@H](c3ccccc3)[C@@H](c3ccccc3)N2[C@@H](c2ccc(OCCOC(=O)[C@@H]3C[C@@H]4C(=O)N[C@@H](CC(C)C)C(=O)N4[C@@H]3c3ccc(O)cc3)cc2)[C@]12C(=O)Nc1ccccc12
0.204 (inactive)

Please look up its z-score: COc1ccc(C(O)C2C=CC3C(=O)N(Cc4ccccc4)C(=O)C3N2n2cnnc2)cc1OCc1ccccc1 (configuration not stated)
0.209 (inactive)

Please look up its z-score: O=C1C[C@@](C(=O)NCCN2CCOCC2)(c2ccc([N+](=O)[O-])cc2)[C@@H](c2ccc(CO)cc2I)N1CC12CC3CC(CC(C3)C1)C2
-0.942 (inactive)

Please look up its z-score: C=CC[C@@]1(C(=O)NCCN2CCOCC2)N=C(c2ccc(OCCCO)cc2)O[C@@H]1c1ccccc1N=[N+]=[N-]
0.301 (inactive)

Please look up its z-score: O=C1O[C@H](c2ccccc2)[C@H](c2ccccc2)N2[C@H]1[C@@H](C(=O)N1CCCCCCC1)[C@]1(C(=O)Nc3ccc(C#CCCO)cc31)[C@H]2c1ccccc1OCCO
0.609 (inactive)

Please look up its z-score: COc1ccc(C(=O)Nc2ccc(CN3C(=O)[C@]4(O[C@H](CCO)[C@@H]([Si](C)(C)c5ccc(OC)cc5)[C@@H]4C)c4ccccc43)cc2)cc1
-1.37 (inactive)

Please look up its z-score: C=CC[C@]1(C(=O)NCCCOC)N=C(c2ccc(OCCCO)cc2)O[C@H]1c1ccccc1CN=[N+]=[N-]
-0.653 (inactive)

Please look up its z-score: COC(=O)[C@@]1(Cc2ccccc2)[C@H]2c3cc(C(=O)N4CCCC4)n(Cc4ccc(S(C)(=O)=O)cc4)c3C[C@H]2CN1C(=O)c1ccccc1
-0.94 (inactive)

Please look up its z-score: COCCCNC(=O)[C@@]1(C)c2ccccc2C(=O)N(C(C)C)[C@H]1c1ccc(CO)cc1
-0.794 (inactive)

Please look up its z-score: COCCOC(=O)N1C(=O)[C@@]2(c3cc(C#CCC(C(=O)OC)C(=O)OC)ccc31)[C@H](c1ccccc1OCCO)N1[C@H](c3ccccc3)[C@H](c3ccccc3)OC(=O)[C@H]1[C@@H]2C(=O)NC[C@H](O)c1ccccc1
-0.165 (inactive)

Please look up its z-score: COc1ccccc1CN1C(=O)c2ccccc2[C@@]2(Cc3ccccc3N(CC(C)C)C2=O)[C@@H]1c1ccc(CO)cc1
-0.12 (inactive)

Please look up its z-score: COCCOC(=O)N1C(=O)[C@@]2(c3ccccc31)[C@H](c1ccc(O)cc1)N1[C@H](c3ccccc3)[C@H](c3ccccc3)OC(=O)[C@H]1[C@@H]2C(=O)Nc1nc2ccccc2s1
0.894 (inactive)

Please look up its z-score: CC(C)N1C(=O)[C@@]2(Cc3ccccc31)c1ccccc1C(=O)N(Cc1ccccc1Cl)[C@H]2c1ccc(CO)cc1
0.581 (inactive)

Please look up its z-score: C=CCNC(=O)[C@@H]1[C@H]2C(=O)O[C@H](c3ccccc3)[C@H](c3ccccc3)N2[C@H](c2ccc(O)cc2)[C@@]12C(=O)Nc1ccc(C#CCNC(N)=O)cc12
-1.29 (inactive)

Please look up its z-score: Oc1ccc2cc[n+](Cc3sc4ccccc4c3Cl)cc2c1
-0.669 (inactive)

Please look up its z-score: COCCCNC(=O)[C@]1(CCC(=O)OC(C)(C)C)N=C(c2ccc(OCCCO)cc2)O[C@@H]1c1ccccc1CN=[N+]=[N-]
-0.458 (inactive)

Please look up its z-score: [N-]=[N+]=Nc1ccccc1[C@H]1OC(c2ccc(OCCCO)cc2)=N[C@@]1(CCS(=O)(=O)c1ccccc1)C(=O)NCC(O)CO (some centres not stated)
-0.562 (inactive)

Please look up its z-score: C[N+](C)(C)CCCC[C@@H]1NC(=O)[C@H]2C[C@@H](C(=O)NCCCCCCNC(=O)CS)[C@@H](c3cccc(OCCO)c3)N2C1=O
0.415 (inactive)

Please look up its z-score: C[C@@]1([C@@H](NC(=O)c2ccc(-c3ccccc3)cc2)c2ccc(Cl)cc2)C[C@H]1C1CCCCC1
-1.28 (inactive)

Please look up its z-score: C=C[C@H](CO)NS(=O)(=O)c1ccc(Br)cc1
1.25 (inactive)

Please look up its z-score: CN1C=C(C(=O)OCCS(C)(=O)=O)C(C(=O)OCCS(C)(=O)=O)=CC(c2ccc(CO)cc2)=CC1C1CC1 (configuration not stated)
0.225 (inactive)

* * *

Record form. Attribute: composite z-score. Fill in for each entry.
Test description: binders of probe aFGF2 on microarray, primary screen, stem cell growth factor project, biochemical, small-molecule microarray, fluorescence 635/667 (AID 1067);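 note: measures binding of biotinylated aFGF2 protein to printed compounds on slides; z-score merges feature fluorescence and signal-to-noise across triplicate slides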
Cond: higher = more signal
Reply briefly: the number, and no unit.

Please look up its composite z-score: CN(C)C(=O)[C@@]1(CCS(=O)(=O)c2ccccc2)COC(c2ccc(OCCCO)cc2)=N1
0.127

Please look up its composite z-score: CC1(C)[C@@H]2CC(C(O)C3C=CC4C(=O)N(c5ccccc5)C(=O)C4N3Nc3ccc([N+](=O)[O-])cc3)=C[C@H]1C2 (some centres not stated)
-0.0834

Please look up its composite z-score: CN(C)CCCC[C@@H]1NC(=O)[C@@H]2C[C@H](C(=O)NCCCCCCN)[C@H](c3cccc(OCCO)c3)N2C1=O
0.044

Please look up its composite z-score: CCC[C@@H]1C[C@@]1(CCC)[C@@H](NC(=O)c1ccccc1)c1cccc(Cl)c1
0.783

Please look up its composite z-score: COC(=O)[C@@]1(CCS(=O)(=O)c2ccccc2)N=C(c2ccc(OCCCO)cc2)O[C@H]1c1ccccc1CN=[N+]=[N-]
-0.0533

Please look up its composite z-score: COc1ccc([Si](C)(C)[C@H]2[C@H](CCO)O[C@@]3(C(=O)N(Cc4ccc(N(C=O)c5ccccc5)cc4)c4ccccc43)[C@@H]2C)cc1
-0.0602

Please look up its composite z-score: [N-]=[N+]=NCc1ccccc1[C@@H]1OC(c2ccc(OCCCO)cc2)=N[C@]1(Cc1ccccc1)C(N)=O
0.0062
